Numbers sourced from patent US6211244A.

% activity listing for selected compounds.
# system under test: human calcium receptor (Homo sapiens, UniProt P41180, R990G)
# Construct: expressed in transfected cells; host or cells: HEK 293
# assay notes: increases in [Ca^2+ ]i in HEK-293 cells expressing the human calcium receptor (fura-2 loaded HEK 293/pHuPCaR4.0 cells), % activity
# Type: cell-based
# measurement setup: 3300 ng/mL
Write it as a number; the unit % goes unstated.

[[record]]
compound = "C[C@@H](NCc1cccc2ccccc12)c1cccc2ccccc12 [Compound 25L]"
numeric_readout = 97

[[record]]
compound = "COc1ccc(CN[C@H](C)c2cccc3ccccc23)cc1Br [Compound 24X]"
numeric_readout = 126

[[record]]
compound = "COc1ccc(CCNC(C)c2cccc3ccccc23)cc1 (stereo not drawn) [Compound 15J]"
numeric_readout = 80


Asked: Quick one: % activity of COc1cccc(C(C)NC(C)c2cccc3ccccc23)c1 (stereo not drawn) [Compound 14Z] ?
Given back: 118

Asked: Quick one: % activity of COc1cccc([C@@H](C)NCc2ccc3c(c2)OCCO3)c1 [Compound 25O] ?
Given back: 126

---

# system under test: human calcium receptor (Homo sapiens, UniProt P41180, R990G)
# Construct: expressed in transfected cells; host or cells: HEK 293
# assay notes: increases in [Ca^2+ ]i in HEK-293 cells expressing the human calcium receptor (fura-2 loaded HEK 293/pHuPCaR4.0 cells), % activity
# Assay type: cell-based
# measurement setup: 33 ng/mL
metric: % activity (%)
Write it as a number; the unit % goes unstated.

Example entries and their recorded answers appear below.
[[record]]
molecule = "C[C@@H](NCc1ccc2c(c1)OCCO2)c1cccc2ccccc12 [Compound 13X]"
metric = "% activity"
numeric_readout = 65

[[record]]
molecule = "CCOc1ccc(CN[C@H](C)c2cccc3ccccc23)cc1C [Compound 25A]"
metric = "% activity"
numeric_readout = 114

[[record]]
molecule = "COc1ccc(CNCc2ccccc2OC)cc1C [Compound 17V]"
metric = "% activity"
numeric_readout = 27

[[record]]
molecule = "COc1cccc(C(C)NCCCc2ccccc2C(F)(F)F)c1 (stereo not shown)"
metric = "% activity"
numeric_readout = 59

[[record]]
molecule = "CC(NCCC(c1ccccc1)c1ccccc1)c1cccc2ccccc12 (stereo not shown)"
metric = "% activity"
numeric_readout = 57

[[record]]
molecule = "COc1cccc([C@@H](C)NCCCc2ccccc2C(F)(F)F)c1 [Compound 21O]"
metric = "% activity"
numeric_readout = 75

[[record]]
molecule = "COc1ccc(CNC(C)c2ccc(Cl)cc2)cc1C (stereo not shown) [Compound 23O]"
metric = "% activity"
numeric_readout = 46

[[record]]
molecule = "COc1ccccc1CCCN[C@H](C)c1cccc2ccccc12 [Compound 16I]"
metric = "% activity"
numeric_readout = 96

[[record]]
molecule = "CSc1ccc(CN[C@H](C)c2cccc3ccccc23)cc1 [Compound 16X]"
metric = "% activity"
numeric_readout = 96

[[record]]
molecule = "C[C@@H](NCCCc1ccccc1Cl)c1cccc(OCC(F)F)c1 [Compound 21V]"
metric = "% activity"
numeric_readout = 99


# input for lookup
Asked: Quick one: % activity of CCC(NC(C)c1cccc2ccccc12)c1ccc(OC)cc1 (mixture of isomers) [Compound 17G] ?
Given back: 119

---

# system under test: human calcium receptor (Homo sapiens, UniProt P41180, R990G)
# Construct: expressed in transfected cells; host or cells: HEK 293
# Sequence (P41180 20-1078 R990G): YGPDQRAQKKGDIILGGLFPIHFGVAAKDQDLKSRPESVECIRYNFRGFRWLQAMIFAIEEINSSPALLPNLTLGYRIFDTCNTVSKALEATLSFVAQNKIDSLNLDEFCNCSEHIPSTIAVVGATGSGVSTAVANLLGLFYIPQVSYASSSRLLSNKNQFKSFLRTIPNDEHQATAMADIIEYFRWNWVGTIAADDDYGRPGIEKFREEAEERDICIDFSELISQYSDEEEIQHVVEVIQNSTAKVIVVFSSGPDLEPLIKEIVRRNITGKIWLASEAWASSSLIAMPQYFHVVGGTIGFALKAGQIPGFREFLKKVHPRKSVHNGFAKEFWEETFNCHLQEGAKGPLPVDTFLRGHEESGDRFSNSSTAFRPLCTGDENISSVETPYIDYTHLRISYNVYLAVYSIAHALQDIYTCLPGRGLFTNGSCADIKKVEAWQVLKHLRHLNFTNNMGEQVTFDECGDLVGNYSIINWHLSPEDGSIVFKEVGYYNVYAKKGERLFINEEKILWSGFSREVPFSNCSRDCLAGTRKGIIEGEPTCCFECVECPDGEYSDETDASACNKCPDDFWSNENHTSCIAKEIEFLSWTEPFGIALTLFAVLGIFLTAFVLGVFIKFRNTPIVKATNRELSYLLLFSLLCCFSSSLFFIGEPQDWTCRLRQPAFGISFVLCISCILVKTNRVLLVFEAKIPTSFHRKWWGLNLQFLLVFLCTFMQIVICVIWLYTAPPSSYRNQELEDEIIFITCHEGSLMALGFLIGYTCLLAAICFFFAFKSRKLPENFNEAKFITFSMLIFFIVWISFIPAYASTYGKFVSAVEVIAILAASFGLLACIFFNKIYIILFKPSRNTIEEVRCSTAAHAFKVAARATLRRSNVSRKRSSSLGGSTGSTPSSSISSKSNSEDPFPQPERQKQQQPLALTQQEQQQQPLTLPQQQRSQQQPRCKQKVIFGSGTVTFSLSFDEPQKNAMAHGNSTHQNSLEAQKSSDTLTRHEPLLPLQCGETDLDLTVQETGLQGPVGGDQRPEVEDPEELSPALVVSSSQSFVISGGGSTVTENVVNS
# assay notes: increases in [Ca^2+ ]i in HEK-293 cells expressing the human calcium receptor (fura-2 loaded HEK 293/pHuPCaR4.0 cells), % activity
# Type: cell-based
# measurement setup: 33 ng/mL
metric: % activity (%)
Write it as a number; the unit % goes unstated.

[[record]]
molecule = "C[C@@H](NCc1ccc(C(F)(F)F)cc1)c1cccc2ccccc12 [Compound 13S]"
metric = "% activity"
display_unit = "%"
numeric_readout = 87

[[record]]
molecule = "COc1cccc([C@@H](C)NCCCc2cccc(OC(F)(F)F)c2)c1 [Compound 21M]"
metric = "% activity"
display_unit = "%"
numeric_readout = 58

[[record]]
molecule = "COc1cccc(C(C)NC(C)c2cccc(OC)c2)c1 (stereo not shown) [Compound 16O]"
metric = "% activity"
display_unit = "%"
numeric_readout = 21

[[record]]
molecule = "COc1cccc([C@@H](C)NCCCc2ccccc2Cl)c1 [NPS R-568, reference compound]"
metric = "% activity"
display_unit = "%"
numeric_readout = 69

[[record]]
molecule = "CC(NC(C)c1ccc(C(C)(C)C)cc1)c1ccccc1 (mixture of isomers) [Compound 13H]"
metric = "% activity"
display_unit = "%"
numeric_readout = 36

[[record]]
molecule = "Cc1cc(C(C)NC(C)c2cccc3ccccc23)ccc1OCc1ccccc1 (mixture of isomers) [Compound 25X]"
metric = "% activity"
display_unit = "%"
numeric_readout = 72


Asked: Quick one: % activity of COc1cccc([C@@H](C)NCc2ccc(OC)c(OC)c2)c1 [Compound 25K] ?
Given back: 86

Asked: Quick one: % activity of COc1cccc(C(C)NCCCc2cc(OC)c(OC)c(OC)c2)c1 (stereo not shown) [Compound 8S] ?
Given back: 42

Asked: Quick one: % activity of CC(N[C@H](C)c1ccccc1)c1ccc2ccccc2c1 (stereo partly shown) [Compound 4H] ?
Given back: 37

Asked: Quick one: % activity of COc1cccc([C@@H](C)NCC(C)c2ccccc2)c1 (stereo partly shown) [Compound 25N] ?
Given back: 46
